# Test system: β-galactosidase in CMV-LacZ C2C12 myotubes
# protocol-notes: CMV-LacZ secondary screen in C2C12 myotubes (β-Gal stabilizing assay)
# Assay type: cell-based, mouse
# reported-conditions: 40 uM; C2C12 CMV-LacZ myotubes; fold relative to DMSO
assay-readout: CMV-LACZ in Myotubes, signal relative to DMSO
Respond with the number and no other words.

Previously resolved entries follow.
{"columns": ["compound", "quantitative-result"],
 "data": [
  ["Cc1cccc2c(N=Nc3ccc(S(=O)(=O)Nc4ccc(Cl)cc4)cc3[N+](=O)[O-])c(O)[nH]c12 [MLS000393762-01]", 1.0578],
  ["COc1ccccc1C(=O)OCc1ccc2sc(C)nc2c1 [MLS001006798-01]", 1.0976],
  ["CC1CCN(C(CNS(=O)(=O)c2ccccc2)c2ccccc2)CC1 (stereo not drawn) [MLS002171615-01]", 1.0711]
]}

Query string: Given the compound COC(=O)c1ccc(N=Nc2ccccc2)cc1 [MLS001005712-01] , what is its reported CMV-LACZ in Myotubes, signal relative to DMSO?
Result string: 1.3167

###

Parameter: CMV-LACZ in Myoblasts (β-galactosidase activity relative to DMSO). Scope: all listed entries.
# Tested on: β-galactosidase in CMV-LacZ C2C12 myoblasts
# protocol-notes: CMV-LacZ secondary screen in C2C12 myoblasts (β-Gal stabilizing assay)
# Format: cell-based, mouse
# reported-conditions: 5 uM; CMV-LacZ C2C12 myoblasts
// no unit, no text: just the number

The following compounds have reported results that may help.
{"columns": ["compound", "target-desc", "quantitative-result"],
 "data": [
  ["CCNC(=O)C(=O)Nc1cc2c3c(c1)CCN3C(=O)CC2", "β-galactosidase in CMV-LacZ C2C12 myoblasts", 1.1822],
  ["O=C(CCc1ccccc1)c1nnc(-c2ccccc2)o1", "β-galactosidase in CMV-LacZ C2C12 myoblasts", 1.0438],
  ["OC(c1nc2ccc(F)cc2[nH]1)C(O)c1nc2ccc(F)cc2[nH]1 (stereo not drawn)", "β-galactosidase in CMV-LacZ C2C12 myoblasts", 1.0528],
  ["CC(C)(C)c1ccc(C(=O)OCC(=O)Nc2sc3c(c2C#N)CCC3)cc1", "β-galactosidase in CMV-LacZ C2C12 myoblasts", 0.9342],
  ["O=C(O)c1csc(-c2cccs2)n1", "β-galactosidase in CMV-LacZ C2C12 myoblasts", 0.8293]
]}

Query string: Recorded CMV-LACZ in Myoblasts (β-galactosidase activity relative to DMSO) for "CCOc1ccc2nc(Cl)sc2c1" , please?
Result string: 1.0561

Query string: May I ask what CMV-LACZ in Myoblasts (β-galactosidase activity relative to DMSO) has been recorded for "CCOn1c(=O)c(-c2ccccc2)[n+]([O-])c2ccccc21" ?
Result string: 0.9355

Query string: // query CMV-LACZ in Myoblasts (β-galactosidase activity relative to DMSO) value for entry "O=c1[nH]c(SCc2ccc(Cl)cc2)nc2ccsc12"
Result string: 0.9281

Query string: Which CMV-LACZ in Myoblasts (β-galactosidase activity relative to DMSO) is reported for this compound? "O=C(Nc1ccccc1OC(=O)c1ccc(Cl)cc1)c1ccc(Cl)cc1"
Result string: 1.1030

Query string: I would be grateful if you could share the reported CMV-LACZ in Myoblasts (β-galactosidase activity relative to DMSO) for "Cc1ccsc1-c1n[nH]c(=S)n1C1CCCCC1" .
Result string: 1.1399

Query string: Given the entry "COc1ccc(OC)c(S(=O)(=O)Nc2c(NC3CCCCC3)c3ccccc3oc2=O)c1" , report its measured CMV-LACZ in Myoblasts (β-galactosidase activity relative to DMSO).
Result string: 0.6476
